- experimental_system: T1, recombinant cynomolgus monkey PD-L1 expressed with a C-terminal mouse IgG2a Fc tag (cynomolgus monkey)
- T1 construct: also called MfPD-L1-mFc; monkey PD-L1-mFc
- T1 sequence (chain, as listed by the source limits assumed): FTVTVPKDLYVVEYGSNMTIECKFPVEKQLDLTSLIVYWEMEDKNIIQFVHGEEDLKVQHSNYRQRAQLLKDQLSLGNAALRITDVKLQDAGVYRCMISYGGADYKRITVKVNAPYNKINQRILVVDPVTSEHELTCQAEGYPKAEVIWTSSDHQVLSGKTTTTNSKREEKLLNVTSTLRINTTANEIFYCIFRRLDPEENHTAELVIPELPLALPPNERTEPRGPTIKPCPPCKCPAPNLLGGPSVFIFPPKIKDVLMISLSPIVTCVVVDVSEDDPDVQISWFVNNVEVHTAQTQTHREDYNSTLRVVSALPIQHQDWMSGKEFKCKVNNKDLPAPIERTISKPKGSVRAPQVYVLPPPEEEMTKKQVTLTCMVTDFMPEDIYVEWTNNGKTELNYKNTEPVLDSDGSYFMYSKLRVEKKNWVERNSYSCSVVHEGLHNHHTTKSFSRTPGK
- protocol_description: SPR (Biacore), mAb captured, 37C
- Experimental: Binding association and dissociation rate constants (kₐ and kd, respectively), equilibrium dissociation constants and dissociation half-lives (KD and t_{1/2}, respectively) of antigen binding to purified anti-PD-L1 monoclonal antibodies were determined using a real-time surface plasmon resonance biosensor assay on a Biacore 4000 instrument. […]
attribute_measured: koff (s⁻¹)
Just the number in s⁻¹, nothing appended.

binder	unit_abbrev	numeric_value
H1H8314N (antibody, V domains shown, human IgG1 Fc form (H1H prefix) of numerical identifier 8314) VH: EVQLVESGGGVVRPGGSLRLSCAASGFTFDDYGMTWVRQAPGRGLEWVSGIHWHGKRTGYADSVKGRFTISRDNAKKSLYLQMNSLKGEDTALYHCVRGGMSTGDWFDPWGQGTLVIVSS VL: DIQMTQSPSSLSASLGDRVTITCRASQSINSYLNWYQQKPGKAPKLLIYVASSLQSGVPSRFSGSGSGTEFTLTISNLQPEDFATYYCQQSYSTPPITFGQGTRLEIK	s⁻¹	9.6e-05

## Input What does the data say about its koff? Entry: H1H9329P (antibody, V domains shown, human IgG1 Fc (H1H prefix)) VH: EVQLVESGGGLVQSGGSLRLSCAASGFTFSSYWMSWVRQAPGKGLEWVANIKQDGSEKYYVDSVKGRFTISRDNAKNSLYLQMNSLRADDTAVYYCARDDIVVVPAPMGYYYYYFGMDVWGQGTTVTVSS VL: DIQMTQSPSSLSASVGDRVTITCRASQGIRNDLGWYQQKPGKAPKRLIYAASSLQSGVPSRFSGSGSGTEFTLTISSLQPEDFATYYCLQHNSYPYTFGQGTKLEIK
## Output 0.00154

## Input What would you report for H1H8323N (antibody, V domains shown, human IgG1 Fc form (H1H prefix) of numerical identifier 8323) VH: QVQLVQSGAEVKMPGSSVRVSCKASGGIFSSSTISWVRQAPGQGLEWMGEIIPVFGTVNYAQKFQDRVIFTADESTTTAYMELSSLKSGDTAVYFCARNWGLGSFYIWGQGTMVTVSS VL: EIVLTQSPGTLSLSPGERATLSCRASQSFNFNYLAWYQQKPGQAPRLLIYGASSRATGIPDRFSGSGSGTDFTLTINRLEPEDFGVFYCQQYESAPWTFGQGTKVEIK ?
## Output 0.000135

## Input What would you report for H1H9336P (antibody, V domains shown, human IgG1 Fc (H1H prefix)) VH: EVQLVESGGGLVQPGRSLRLSCAASGFTFDDFAMHWVRQAPGKGLEWVSGISWTGGNMDYANSVKGRFTISREDAKNSLYLQMNSLRAADTALYYCVKDIRGIVATGGAFDIWGRGTMVTVSS VL: DIQMTQSPSSLSASVGDRVTISCRASQTISTYLNWFQQKPGKAPKLLIYVVSSLQSGVPSRFSGSGSGTDFTLTISSLQPEDFATYYCQQSYSTPFTFGPGTKVDIK ?
## Output 4.6e-05
